# experimentalTarget: L-aspartate-α-decarboxylase (Escherichia coli)
# Construct: expressed in transfected cells; host or cells: E. coli W3110 transformed with pIF309 = strain NS3291 (ATCC 98675), whole cells
# protocolDetails: Activity towards D/L-glutamate and D/L-alanine, D/L-aspartate as control (Example 8)
# Format: biochemical, E. coli K12
# conditionParameters: 0 hr; racemate substrate, pH 7.0
measuredEndpoint: concentration in supernatant fluid
The reply should read as a number followed by its unit.

Given N[C@H](CC(=O)O)C(=O)O , state its recorded concentration in supernatant fluid.
29.890 mg/mL

Given C[C@H](N)C(=O)O , state its recorded concentration in supernatant fluid.
19.320 mg/mL

Given N[C@@H](CC(=O)O)C(=O)O , state its recorded concentration in supernatant fluid.
26.810 mg/mL

Given N[C@H](CCC(=O)O)C(=O)O , state its recorded concentration in supernatant fluid.
29.440 mg/mL

Given N[C@@H](CCC(=O)O)C(=O)O , state its recorded concentration in supernatant fluid.
29.350 mg/mL

Given C[C@@H](N)C(=O)O , state its recorded concentration in supernatant fluid.
19.190 mg/mL

###

# experimentalTarget: L-aspartate-α-decarboxylase (Escherichia coli, UniProt P0A790)
# Construct: expressed in transfected cells; host or cells: E. coli W3110 transformed with pIF309 = strain NS3291 (ATCC 98675), whole cells
# protocolDetails: Activity towards D/L-glutamate and D/L-alanine, D/L-aspartate as control (Example 8)
# Type: biochemical, E. coli K12
# conditionParameters: 24 hr; racemate substrate, pH 7.0
Decision: concentration in supernatant fluid compared against 20 mg/mL; not below it gives Yes, below it gives No.

Here are 5 compounds together with their reported answers.
[
  {
    "entrySmiles": "N[C@@H](CCC(=O)O)C(=O)O",
    "assignedCategory": "Yes"
  },
  {
    "entrySmiles": "N[C@H](CCC(=O)O)C(=O)O",
    "assignedCategory": "Yes"
  },
  {
    "entrySmiles": "C[C@@H](N)C(=O)O",
    "assignedCategory": "No"
  },
  {
    "entrySmiles": "N[C@H](CC(=O)O)C(=O)O",
    "assignedCategory": "Yes"
  },
  {
    "entrySmiles": "C[C@H](N)C(=O)O",
    "assignedCategory": "No"
  }
]

Record N[C@@H](CC(=O)O)C(=O)O ; criterion: concentration in supernatant fluid no lower than 20 mg/mL. Met?
No

###

# experimentalTarget: L-aspartate-α-decarboxylase (Escherichia coli)
# Construct: expressed in transfected cells; host or cells: E. coli W3110 transformed with pIF309 = strain NS3291 (ATCC 98675), whole cells
# protocolDetails: Activity towards D/L-glutamate and D/L-alanine, D/L-aspartate as control (Example 8)
# Format: biochemical, E. coli K12
# conditionParameters: 3.5 hr; racemate substrate, pH 7.0
The molecules listed here are annotated with their concentration in supernatant fluid.
The reply should read as a number followed by its unit.

Worked examples, 5 molecules total:
[
  {
    "molecule": "N[C@H](CCC(=O)O)C(=O)O [D-Glu]",
    "concentration in supernatant fluid": "29.010 mg/mL"
  },
  {
    "molecule": "C[C@H](N)C(=O)O [L-Ala]",
    "concentration in supernatant fluid": "18.960 mg/mL"
  },
  {
    "molecule": "N[C@@H](CC(=O)O)C(=O)O [L-Asp, L-aspartic acid]",
    "concentration in supernatant fluid": "14.050 mg/mL"
  },
  {
    "molecule": "N[C@@H](CCC(=O)O)C(=O)O [L-Glu]",
    "concentration in supernatant fluid": "28.400 mg/mL"
  },
  {
    "molecule": "N[C@H](CC(=O)O)C(=O)O [D-Asp, D-aspartic acid]",
    "concentration in supernatant fluid": "29.850 mg/mL"
  }
]

Given C[C@@H](N)C(=O)O [D-Ala] , state its recorded concentration in supernatant fluid.
18.590 mg/mL
